# System: Staphylococcus aureus
# Protocol notes: Susceptibility testing (MIC, modified NCCLS method)
# Format: cell-based
# Settings: S. aureus ATCC 11632
// MIC lookup, one value per entry
Just the number please, in µg/mL, no unit attached.

CON=C(C(=O)NC1C(=O)N2C(C(=O)O)=C(COc3cc(Cl)ccc3Oc3ccc(Cl)cc3Cl)CSC12)c1csc(N)n1 (stereo not shown) [Compound 44]: 0.5

# context switch: different compound, same MIC
Prompt: What measured MIC goes with O=C(Cc1cccs1)NC1C(=O)N2C(C(=O)O)=C(C=CCOc3ccc(Cl)cc3C(=O)Nc3ccc(Cl)c(Cl)c3)CS[C@H]12 (stereo partly shown) [Compound 35] ?
Response: 0.063

----------
# Tested on: Staphylococcus aureus
# Protocol notes: Susceptibility testing (MIC, modified NCCLS method)
# Assay type: cell-based
# Settings: S. aureus ATCC 33594
Measure name: MIC (µg/mL)
Just the number in µg/mL, nothing appended.

Completed entries (count: 5):
O=C(Cc1cccs1)NC1C(=O)N2C(C(=O)O)=C(C=CCOc3ccc(Cl)cc3C(=O)Nc3ccc(Cl)c(Cl)c3)CS[C@H]12 (some centres unmarked): 0.063
O=C(Cc1cccs1)NC1C(=O)N2C(C(=O)O)=C(CC=COc3cc(Cl)ccc3Oc3ccc(Cl)cc3Cl)CSC12 (centres unmarked): 0.065
CC(=O)NC1C(=O)N2C(C(=O)O)=C(COc3cc(Cl)ccc3Oc3ccc(Cl)cc3Cl)CSC12 (centres unmarked): 0.063
CON=C(C(=O)NC1C(=O)N2C(C(=O)O)=C(COc3cc(Cl)ccc3Oc3ccc(Cl)cc3Cl)CSC12)c1csc(N)n1 (centres unmarked): 0.063
O=C(Cn1cnnn1)Nc1ncc(CC(=O)NC2C(=O)N3C(C(=O)O)=C(COc4cc(Cl)ccc4Oc4ccc(Cl)cc4Cl)CS[C@H]23)s1 (some centres unmarked): 0.063

Prompt: Given the molecule NC(C(=O)NC1C(=O)N2C(C(=O)O)=C(COc3cc(Cl)ccc3Oc3ccc(Cl)cc3Cl)CSC12)c1ccccc1 (centres unmarked) , what is its reported MIC?
Response: 0.062

Prompt: Next: Cc1nnc(SCC(=O)Nc2ncc(CC(=O)NC3C(=O)N4C(C(=O)O)=C(COc5cc(Cl)ccc5Oc5ccc(Cl)cc5Cl)CSC34)s2)s1 (centres unmarked)
Response: 0.063

Prompt: # iterate: O=C(Cc1cnc[nH]1)NC1C(=O)N2C(C(=O)O)=C(COc3cc(Cl)ccc3Oc3ccc(Cl)cc3Cl)CS[C@H]12 (some centres unmarked)
Response: 0.063

----------
# System: K. pneumoniae
# Protocol notes: Susceptibility testing (MIC, modified NCCLS method)
# Type: cell-based, Klebsiella pneumoniae
# Settings: K. pneumoniae ATCC 700721
Measure name: MIC (µg/mL)
Please give a number only; it is taken to be in µg/mL.

Consider the following illustrative entries.
CC(=O)NC1C(=O)N2C(C(=O)O)=C(COc3cc(Cl)ccc3Oc3ccc(Cl)cc3Cl)CSC12 (stereo not shown): 2
CON=C(C(=O)NC1C(=O)N2C(C(=O)O)=C(COc3cc(Cl)ccc3Oc3ccc(Cl)cc3Cl)CSC12)c1csc(N)n1 (stereo not shown): 8
Cc1nnc(SCC(=O)Nc2ncc(CC(=O)NC3C(=O)N4C(C(=O)O)=C(COc5cc(Cl)ccc5Oc5ccc(Cl)cc5Cl)CSC34)s2)s1 (stereo not shown): 8
O=C(Cc1cnc[nH]1)NC1C(=O)N2C(C(=O)O)=C(COc3cc(Cl)ccc3Oc3ccc(Cl)cc3Cl)CS[C@H]12 (stereo partly shown): 0.5
O=C(Cc1cccs1)NC1C(=O)N2C(C(=O)O)=C(CC=COc3cc(Cl)ccc3Oc3ccc(Cl)cc3Cl)CSC12 (stereo not shown): 2.07

Prompt: Observed MIC on K. pneumoniae for O=C(Cn1cnnn1)Nc1ncc(CC(=O)NC2C(=O)N3C(C(=O)O)=C(COc4cc(Cl)ccc4Oc4ccc(Cl)cc4Cl)CS[C@H]23)s1 (stereo partly shown) , please.
Response: 4
